Assay: Metabolic stability in dog liver microsomes
Format: in vitro ADME
Settings: maximal oral bioavailability calculated with well stirred liver model; 1 µM compound, 0.5 mg/mL protein; '(stable)' given beside 100
Assay readout: Fmax, dog microsomes
Please append the unit to your numeric answer.

The examples below pair each entry with its known result.
[
  {
    "Given smiles": "O[C@H]1C[C@@H](Nc2nc(N3CC(N4CCOCC4)C3)c3cnn(-c4cccc(C(F)(F)F)c4)c3n2)C1",
    "Fmax, dog microsomes": "95%"
  },
  {
    "Given smiles": "CC(C)(O)C1CCN(c2nc(N[C@H]3CCS(=O)(=O)C3)nc3c2cnn3-c2cccc(C(F)F)c2)CC1",
    "Fmax, dog microsomes": "78%"
  }
]

-- ask Value lookup for Fmax, dog microsomes; key = O=S1(=O)CCC(Nc2nc(N3CC(N4CCOCC4)C3)c3cnn(-c4cccc(C(F)F)c4)c3n2)CC1
-- reply 97%

-- ask Value lookup for Fmax, dog microsomes; key = CS(=O)(=O)[C@H]1C[C@H](Nc2nc(N3CC(N4CCOCC4)C3)c3cnn(-c4cccc(C(F)(F)F)c4)c3n2)C1
-- reply 97%

* * *

Assay: Metabolic stability in human liver microsomes
Settings: hepatic in vivo blood clearance calculated with well stirred liver model; 1 µM compound; '(stable)' given beside < 0.01
Assay readout: CLblood, human microsomes (L/h/kg)
Please give a number only; it is taken to be in L/h/kg.

The examples below pair each entry with its known result.
[
  {
    "Given smiles": "O=C1CCCN1C1CN(c2nc(N[C@H]3C[C@H](O)C3)nc3c2cnn3-c2cccc(C(F)(F)F)c2)C1",
    "CLblood, human microsomes (L/h/kg)": 0.03
  },
  {
    "Given smiles": "O[C@H]1C[C@H](Nc2nc(N3CC(N4CCOCC4)C3)c3cnn(-c4cccc(C(F)(F)F)c4)c3n2)C1",
    "CLblood, human microsomes (L/h/kg)": 0.11
  },
  {
    "Given smiles": "C[C@]1(O)C[C@@H](Nc2nc(N3CC(N4CCOCC4)C3)c3cnn(-c4cccc(C(F)(F)F)c4)c3n2)C1",
    "CLblood, human microsomes (L/h/kg)": 0.32
  },
  {
    "Given smiles": "CC(C)(O)C1CCN(c2nc(N[C@H]3C[C@](C)(N)C3)nc3c2cnn3-c2cccc(C(F)(F)F)c2)CC1",
    "CLblood, human microsomes (L/h/kg)": 0.04
  },
  {
    "Given smiles": "CC(C)(O)C1CCN(c2nc(N[C@H]3CCS(=O)(=O)C3)nc3c2cnn3-c2cccc(C(F)F)c2)CC1",
    "CLblood, human microsomes (L/h/kg)": 0.19
  }
]

Now take the following molecule into account.
-- ask Value lookup for CLblood, human microsomes; key = CS(=O)(=O)[C@H]1C[C@H](Nc2nc(N3C[C@@H](O)[C@H](F)C3)c3cnn(-c4cccc(C(F)F)c4)c3n2)C1
-- reply 0.08

* * *

The entries below are paired with their reported CLblood, human microsomes.
Assay: Metabolic stability in human liver microsomes
Details: hepatic in vivo blood clearance calculated with well stirred liver model; 1 µM compound; '(stable)' given beside < 0.01
Please give a number only; it is taken to be in L/h/kg.

The examples below pair each entry with its known result.
[
  {
    "Compound": "CC(C)(O)C1CCN(c2nc(NC3CN(S(C)(=O)=O)C3)nc3c2cnn3-c2cccc(C(F)F)c2)CC1 [II-12]",
    "CLblood, human microsomes, L/h/kg": 0.25
  },
  {
    "Compound": "CC(C)(O)C1CCN(c2nc(NC3CN(S(C)(=O)=O)C3)nc3c2cnn3-c2cccc(C(F)(F)F)c2)CC1 [Example I-14]",
    "CLblood, human microsomes, L/h/kg": 0.07
  },
  {
    "Compound": "CC(C)(O)C1CCN(c2nc(N[C@H]3C[C@H](S(C)(=O)=O)C3)nc3c2cnn3-c2cccc(OC(F)F)c2)CC1 [IV-2]",
    "CLblood, human microsomes, L/h/kg": 0.32
  }
]

-- ask Value lookup for CLblood, human microsomes; key = C[C@]1(O)C[C@H](Nc2nc(N3C[C@@H](O)[C@H](O)C3)c3cnn(-c4cccc(C(F)(F)F)c4)c3n2)C1 [Example I-108]
-- reply 0.16

Source: patent EP3800188A1
